assay: photoluminescence quantum yield (fraction); solvent given as SMILES; conditions: in Cc1ccccc1
assayReadout: photoluminescence quantum yield
Would you mind answering with just the numeric figure?

- COc1ccc(C2=[N+]3C(=Nc4c5c6ccccc6c6ccc(C(C)(C)C)cc6c5c(-c5ccc(OC)cc5)n4[B-]3(F)F)c3c2c2cc(C(C)(C)C)ccc2c2ccccc32)cc1: 0.32

INPUT: Supply measured photoluminescence quantum yield of "CCN1c2ccc(/C=N/Nc3ccccn3)cc2Sc2cc(-c3ccc(OC)cc3)ccc21" in your reply.
OUTPUT: 0.16

INPUT: Supply measured photoluminescence quantum yield of "O=C(c1ccncc1)c1ccc(-n2c3ccccc3c3cc(-n4c5ccccc5c5ccccc54)ccc32)cc1" in your reply.
OUTPUT: 0.178

INPUT: Supply measured photoluminescence quantum yield of "c1ccc(-c2c3c(c(-c4ccccc4)c4cc5ccccc5cc24)Cc2c(c(-c4ccccc4)c4cc5ccccc5cc4c2-c2ccccc2)C3)cc1" in your reply.
OUTPUT: 0.61

INPUT: Supply measured photoluminescence quantum yield of "CCn1c2ccccc2c2cc(-c3cc(-c4ccc5c(c4)c4ccccc4n5CC)nc(S(C)(=O)=O)n3)ccc21" in your reply.
OUTPUT: 0.77

INPUT: Supply measured photoluminescence quantum yield of "CCCCCCCCCCC1(CCCCCCCCCC)c2cc(-c3nc4ccccc4s3)ccc2-c2ccc(N3C(=O)c4ccc5c6ccc7c8c(ccc(c9ccc(c4c59)C3=O)c86)C(=O)N(c3ccc4c(c3)C(CCCCCCCCCC)(CCCCCCCCCC)c3cc(-c5nc6ccccc6s5)ccc3-4)C7=O)cc21" in your reply.
OUTPUT: 0.23

---

experiment: photoluminescence quantum yield (fraction); solvent given as SMILES; conditions: in Cc1ccccc1
Grouping key: photoluminescence quantum yield. Bins: interval 1: < 0.1; interval 2: ≥ 0.1 and < 0.5; interval 3: ≥ 0.5

INPUT: Just checking, what class would you give "CC1(C)c2cc(C#N)ccc2-c2ccc(N3c4ccccc4Oc4ccccc43)cc21" here?
OUTPUT: interval 1

---

test: photoluminescence quantum yield (fraction); solvent given as SMILES; conditions: in OCC(O)CO
assayReadout: photoluminescence quantum yield

Examples with answers:
• COc1cc(/C=C2/SC(=O)NC2=O)cc(OC)c1O = 0.38
• CN(C)c1ccc(/C=C/c2nc3ccc(N(C)C)cc3oc2=O)cc1 = 0.019
• COc1cc(/C=C2/SC(=O)NC2=O)ccc1O = 0.35

We next turn to a different compound, shown below.
INPUT: Supply measured photoluminescence quantum yield of "C[n+]1ccc(/C=C/c2ccc(N(c3ccccc3)c3ccc(/C=C/c4cc[n+](C)cn4)cc3)cc2)nc1" in your reply.
OUTPUT: 0.026

---

test: photoluminescence quantum yield (fraction); solvent given as SMILES; settings: in CC#N
assayReadout: photoluminescence quantum yield
Would you mind answering with just the numeric figure?

- COc1cccc(C2=CC3=C(c4c(C)cc(C)cc4C)c4cc(-c5cccc(OC)c5)c(-c5cccc(OC)c5)n4[B-](F)(F)[N+]3=C2c2cccc(OC)c2)c1: 0.65
- COc1cc(OC)cc(C2=[O+][B-](F)(F)OC(c3cccs3)=C2)c1: 0.002
- c1ccc2nc3cccc(-c4ccc(-n5c6ccccc6c6ccccc65)cc4)c3cc2c1: 0.325
- CCN(CC)c1ccc2cc(/C=C/C(O)=C/C(C)=O)c(=O)oc2c1: 0.36
- Cc1ccc2nc3[nH]c(=O)[nH]c(=O)c3nc2c1C: 0.041
- Fc1nc(F)c(F)c(C#Cc2cc3c(cc2C#Cc2c(F)c(F)nc(F)c2F)OC2(CCCCC2)O3)c1F: 0.9
- Oc1ccccc1/C=N/c1cc2nc3ccccc3nc2cc1/N=C/c1ccccc1O: 0.34
- CC1(C)CC(NCc2ccc3ccc4cccc5ccc2c3c45)CC(C)(C)N1[O]: 0.03

INPUT: Supply measured photoluminescence quantum yield of "CN(C)c1ccc2nc(/C=C/c3ccccc3)c(=O)oc2c1" in your reply.
OUTPUT: 0.54

---

Quick reference: photoluminescence quantum yield of the listed items.
experiment: photoluminescence quantum yield (fraction); solvent given as SMILES; conditions: in CC#N
Would you mind answering with just the numeric figure?

• O=CN1N=C(c2ccc(Br)cc2)C[C@@H]1c1ccccc1 = 0.14

INPUT: Supply measured photoluminescence quantum yield of "CC(=O)n1cc(/C=C/c2ccc([N+](=O)[O-])cc2)c2ccccc21" in your reply.
OUTPUT: 0.045

INPUT: Supply measured photoluminescence quantum yield of CCC1=C(C)C2=Cc3c4ccccc4c4n3[B-](c3ccc(OC)cc3)(Oc3ccccc3-4)[N+]2=C1C (stereo unspecified) in your reply.
OUTPUT: 0.67

INPUT: Supply measured photoluminescence quantum yield of "F[B-]1(F)n2c(nc3c4ccccc4c4ccccc4c32)-c2cccc[n+]21" in your reply.
OUTPUT: 0.08

INPUT: Supply measured photoluminescence quantum yield of "C(=C\c1nc2ccccc2s1)/c1ccc(-c2nc3c4cccnc4c4ncccc4c3[nH]2)cc1" in your reply.
OUTPUT: 0.17

INPUT: Supply measured photoluminescence quantum yield of "CC(C)(C)c1ccc2c3c(c4ccc(C(C)(C)C)cc4c2c1)=[N+]1C(=C(c2ccccc2)c2c(Br)c4c5ccc(C(C)(C)C)cc5c5cc(C(C)(C)C)ccc5c4n2[B-]1(F)F)C=3Br" in your reply.
OUTPUT: 0.02

---

assay: photoluminescence quantum yield (fraction); solvent given as SMILES; details: in OCCO
assayReadout: photoluminescence quantum yield
Would you mind answering with just the numeric figure?

* COC(=O)C(Cc1ccc2oc(-c3ccc(N(C)c4ccccc4)cc3)nc2c1)NC(=O)OC(C)(C)C (configuration not stated) | 0.03
* COc1cc(/C=C2/SC(=O)NC2=O)cc(OC)c1O | 0.108
* Cc1ccc2sc3cc(CCC(=O)O)ccc3c(=O)c2c1 | 0.23
* CC1=CC(=[N+]2CCC2)C=C2C1=Nc1c(C)cc(N3CCC3)cc1[Si]2(C)C | 0.13
* COc1cc(/C=C2/SC(=O)NC2=O)ccc1O | 0.104

INPUT: Supply measured photoluminescence quantum yield of O=C(O)C1=C/C(=C/C=[N+]2/c3cc(O)c(C[C@@H]4O[C@H](CO)[C@@H](O)C(O)[C@H]4O)cc3C[C@H]2C(=O)O)C[C@H](C(=O)O)N1 (some centres not stated) in your reply.
OUTPUT: 0.0041

INPUT: Supply measured photoluminescence quantum yield of COC(=O)C(Cc1ccc2oc(-c3ccc(N(C)C)cc3)nc2c1)NC(=O)OC(C)(C)C (configuration not stated) in your reply.
OUTPUT: 0.76

---

Quick reference: photoluminescence quantum yield of the listed items.
experiment: photoluminescence quantum yield (fraction); solvent given as SMILES; details: in CN(C)C=O
Would you mind answering with just the numeric figure?

Examples with answers:
• O=S(=O)([O-])c1ccc(O)c2ccccc12 = 0.14
• CCCCCCOc1ccc(C#Cc2ccc(-c3ccc(-c4ccc(C#Cc5ccc(OCCCCCC)c(OCCCCCC)c5)s4)c4nsnc34)s2)cc1OCCCCCC = 0.24
• O=C1c2ccc3c4ccc5c6c(ccc(c7ccc(c2c37)C(=O)N1c1ccncc1)c64)C(=O)N(c1ccncc1)C5=O = 0.438
• CCCCCCOc1ccc(N(c2ccc(OCCCCCC)cc2)c2ccc(-c3sc(-c4ccc(N(c5ccc(OCCCCCC)cc5)c5ccc(OCCCCCC)cc5)cc4)c4nc(CC)c(CC)nc34)cc2)cc1 = 0.0205

INPUT: Supply measured photoluminescence quantum yield of "N#Cc1coc2ccccc2c1=O" in your reply.
OUTPUT: 0.001

INPUT: Supply measured photoluminescence quantum yield of NS(=O)(=O)c1ccc(N2N=C(c3ccc(O)cc3)CC2c2ccc(Br)cc2)cc1 (stereo not drawn) in your reply.
OUTPUT: 0.68

INPUT: Supply measured photoluminescence quantum yield of "CCOC(=O)CN(CC(=O)OCC)c1ccc(-c2cc(-c3cccnc3)nc(-c3cccnc3)c2)cc1" in your reply.
OUTPUT: 0.53

INPUT: Supply measured photoluminescence quantum yield of "CN(C)c1ccc(/C=C/C=C2\CC/C(=C\c3ccc(N(C)C)cc3)C2=O)cc1" in your reply.
OUTPUT: 0.36

---

experiment: photoluminescence quantum yield (fraction); solvent given as SMILES; details: in Cc1ccccc1
Each entry gets False if its photoluminescence quantum yield stays under 0.7, and True if its photoluminescence quantum yield is 0.7 or above.

• CCN(CC)c1ccc2cc(/C=C/C(O)=C/C(C)=O)c(=O)oc2c1 = False
• c1ccc(-c2cc(-c3ccccc3)cc(-c3ccc4c(c3)C3(c5ccccc5-4)c4ccccc4-c4c3c3c5ccccc5c(-c5cc(-c6ccccc6)cc(-c6ccccc6)c5)cc3c3ccccc43)c2)cc1 (stereo unspecified) = True

INPUT: Say whether "CC1(C)c2ccccc2N(c2c(F)cc(-c3nnc(-c4ccccc4)o3)cc2F)c2ccccc21" shows photoluminescence quantum yield of 0.7 or more.
OUTPUT: False

INPUT: Say whether "COc1ccc(-c2csc(/C(C#N)=C/c3ccc(C#N)cc3)n2)cc1" shows photoluminescence quantum yield of 0.7 or more.
OUTPUT: False

INPUT: Say whether "CC(=O)O[B-]1(OC(C)=O)OC(/C=C/c2ccc(C)cc2)=CC(/C=C/c2ccc(C)cc2)=[O+]1" shows photoluminescence quantum yield of 0.7 or more.
OUTPUT: True

INPUT: Say whether "CC1=CC(c2ccc(N(C)C)cc2)=[N+]2C1=Nc1c(C)cc(-c3ccc(N(C)C)cc3)n1[B-]2(F)F" shows photoluminescence quantum yield of 0.7 or more.
OUTPUT: False

INPUT: Say whether "CCCCN1c2ccccc2Sc2cc(/C=C/C3=Nc4ccc5ccccc5c4C3(C)C)ccc21" shows photoluminescence quantum yield of 0.7 or more.
OUTPUT: False

INPUT: Say whether "CC(C)c1cccc(C(C)C)c1N1C(=O)c2cc(Cl)c3c4c(Cl)cc5c6c(cc(Cl)c(c7c(Cl)cc(c2c37)C1=O)c64)C(=O)N(c1c(C(C)C)cccc1C(C)C)C5=O" shows photoluminescence quantum yield of 0.7 or more.
OUTPUT: True

INPUT: Say whether "CN(C)c1ccc(C2=Nc3scc(-c4ccccc4)[n+]3[B-](F)(F)O2)cc1" shows photoluminescence quantum yield of 0.7 or more.
OUTPUT: True
